Every entry's value here was drawn from ChEMBL document CHEMBL3879881.

- TEST_TARGET: Inhibitor of nuclear factor kappa-B kinase subunit beta (Homo sapiens, UniProt O14920)
- Sequence (O14920 whole entry): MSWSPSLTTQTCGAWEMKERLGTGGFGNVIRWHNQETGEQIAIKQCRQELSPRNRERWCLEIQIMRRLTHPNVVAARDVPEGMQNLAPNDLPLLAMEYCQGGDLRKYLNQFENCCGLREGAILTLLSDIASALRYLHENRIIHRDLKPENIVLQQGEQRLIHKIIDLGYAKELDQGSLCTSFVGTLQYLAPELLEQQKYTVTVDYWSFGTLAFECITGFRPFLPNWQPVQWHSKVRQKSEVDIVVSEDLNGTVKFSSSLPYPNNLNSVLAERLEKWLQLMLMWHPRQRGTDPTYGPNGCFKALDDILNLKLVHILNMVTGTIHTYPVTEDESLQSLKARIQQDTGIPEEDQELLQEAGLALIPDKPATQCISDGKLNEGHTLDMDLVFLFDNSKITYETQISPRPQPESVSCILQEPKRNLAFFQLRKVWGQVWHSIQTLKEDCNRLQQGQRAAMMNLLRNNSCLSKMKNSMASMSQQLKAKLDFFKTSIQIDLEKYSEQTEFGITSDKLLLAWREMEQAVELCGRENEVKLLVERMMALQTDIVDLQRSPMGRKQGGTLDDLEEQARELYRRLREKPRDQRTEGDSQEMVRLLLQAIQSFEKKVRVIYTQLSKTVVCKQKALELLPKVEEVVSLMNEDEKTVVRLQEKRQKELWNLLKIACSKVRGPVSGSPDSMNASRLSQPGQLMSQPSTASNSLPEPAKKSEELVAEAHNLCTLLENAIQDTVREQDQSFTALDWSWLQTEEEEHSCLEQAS
- MEASUREMENT_NOTES: Inhibition of human recombinant C-terminal FLAG-epitope-tagged IKK2 expressed in baculovirus using biotinylated IkappaBalpha peptide as substrate assessed as decrease in [gamma-33P]-ATP incorporation in substrate after 30 mins by scintillation counting method
Hi there, I'd appreciate the recorded IC50 for every entry that follows.

Lookup: Report measured IC50; entry is NC(=O)c1nn(-c2cc(F)c(N)c(F)c2)c2c1CCc1ccc(NC(=O)c3ccncc3Cl)cc1-2
Found: ≤ 1 µM

Lookup: Report measured IC50; entry is NC(=O)c1nn(-c2ccc(S(N)(=O)=O)cc2)c2c1CCc1ccc(NS(=O)(=O)c3ccc(F)cc3)cc1-2
Found: 1 to 10 µM

Lookup: Report measured IC50; entry is CCCCS(=O)(=O)Nc1ccc2c(c1)-c1c(c(C(N)=O)nn1-c1ccc(S(N)(=O)=O)cc1)CC2
Found: 1 to 10 µM

Lookup: Report measured IC50; entry is Cc1cccc(-n2nc(C(N)=O)c3c2-c2cc(NC(=O)c4ccccc4Cl)ccc2CC3)c1
Found: ≤ 1 µM

Lookup: Report measured IC50; entry is CCCCC(=O)Nc1ccc2c(c1)-c1c(c(C(N)=O)nn1-c1ccc(S(N)(=O)=O)cc1)CC2
Found: 1 to 10 µM

Lookup: Report measured IC50; entry is CCS(=O)(=O)c1ccc(-n2nc(C(N)=O)c3c2-c2cc(N)ccc2CC3)cc1
Found: 1 to 10 µM

Lookup: Report measured IC50; entry is NC(=O)c1nn(-c2ccc(S(N)(=O)=O)cc2)c2c1CCc1ccc(NS(=O)(=O)c3ccc(-c4ccccn4)s3)cc1-2
Found: 10 to 100 µM

Lookup: Report measured IC50; entry is CS(=O)(=O)c1ccc(-n2nc(C(N)=O)c3c2-c2cc(N)ccc2CC3)cc1
Found: 1 to 10 µM
